Source of measurements: the RNAGym collection of RNA variant scans (doi:10.1126/science.aae0568)

B1: tRNA (parent)
chain: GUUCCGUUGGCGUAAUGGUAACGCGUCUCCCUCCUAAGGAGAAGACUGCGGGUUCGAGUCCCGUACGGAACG

Variants of: B1
ASSAY_PROCEDURE: yeast fitness relative to wild type (ratio to wild type); higher = fitter; tRNA-Arg(CCU), competitive growth, 37 C, YPD
Fewer inactive variants are shown than the library holds.
Values of yeast fitness greater than or equal to 0.6 map to condition met; values below map to condition not met.

var="C4G A65U" discrete_label="condition met"
var=G10C discrete_label="condition met"
var="A20U G25C U35C C60G" discrete_label="condition not met"
var="U32A C34G C55G G68A A70C" discrete_label="condition not met"
var="U2C A40U G50A" discrete_label="condition not met"
var="C5A U16G A21C C24U C30A" discrete_label="condition met"
var="G6C U32A G41A C46U" discrete_label="condition not met"
var="G10C C22A C24G A36G G48A G50C" discrete_label="condition not met"
var="C11G C22G C27G C62U" discrete_label="condition not met"
var="A14C U16A U26C C66U A69C" discrete_label="condition not met"
var="G12C A20U C30U C49U C55U C66U" discrete_label="condition not met"
var="A20C G25C A40C A43C C55A C61G C66G" discrete_label="condition not met"
var="U7A C60G A70C" discrete_label="condition not met"
var="G12A U16G G48A G68A" discrete_label="condition met"
var="G23C C27A A57U" discrete_label="condition not met"
var="U7C G10C A43C" discrete_label="condition not met"
var="U8A G17A C22U C24U U28C U54G A57C C62U" discrete_label="condition not met"
var="U7A U53A" discrete_label="condition not met"
var="U7G C11G C34U A40G G41A" discrete_label="condition not met"
var="U32C A36U C61U" discrete_label="condition not met"
var="G52A G56A" discrete_label="condition met"
var="U8G A14G A21G C27A U35A C62A A65C" discrete_label="condition not met"
var="U28C A45C" discrete_label="condition met"
var="G23A G52C" discrete_label="condition not met"
var="C29U C33A C34U C46G" discrete_label="condition not met"
var="G9C A14G C55G C61U" discrete_label="condition not met"
var="G17C A42G A70G" discrete_label="condition not met"
var="C4G C5G A43G G63A" discrete_label="condition not met"
var="A20C A21G A45C" discrete_label="condition met"
var="G9A G18A C24A G39A A43C" discrete_label="condition not met"
var="C5U C11U A65U C66G" discrete_label="condition not met"
var="C29U C33A G38A G58C A65U" discrete_label="condition not met"
var="A42U G52A" discrete_label="condition met"
var="G38A U47A C55G" discrete_label="condition met"
var="U8C G50A A69U" discrete_label="condition met"
var="G12A U19C A21U A45U G50A G68C A69U" discrete_label="condition not met"
